Experiment: Cross-over study, blood draws: AUC and half-life of PPI
Assay type: in vivo, human
Details: human, blood, oral; omeprazole and lansoprazole together, e.g. 80 mg lansoprazole+80 mg omeprazole+1680 mg sodium bicarbonate; read-out: elimination half-life when administered together (converted)
Experimental: A study was performed as a cross-over design, with washout between doses. The subject received the test article after placing a Bravo pH probe in the stomach and verifying its placement with pH readings of less than 2. After a baseline evaluation, to ensure that the pH probe is in the correct place for reading gastric acid in the stomach, the subject has an intravenous access established and a baseline blood draw was taken to provide evidence of a lack of PPI in the blood at baseline. […]
REPORTED PROPERTY: half-life

[[record]]
molecule = "Cc1c(OCC(F)(F)F)ccnc1C[S+]([O-])c1nc2ccccc2[nH]1 (stereo not shown)"
reported_property = "half-life"
observed_measurement = "3.7 h"


From: patent US9351966B2
